meta.source: patent US20210246157A1

Test: Solubility test, equilibrium method, UV-visible spectrophotometry
Format: physicochemical
Details: saline or isotonic, thermodynamic from solid

Compound	solubility, µg/mL
CCc1c2c(nc3ccc(OC(=O)OCCOCCOCc4cn([C@H]5O[C@@H](CO)[C@H](O)[C@@H](O)[C@@H]5O)nn4)cc13)-c1cc3c(c(=O)n1C2)COC(=O)[C@]3(O)CC [Compound 47]	511
CCc1c2c(nc3ccc(OC(=O)OCCOCCOCCOCc4cn(CCO[C@H]5O[C@@H](CO)[C@H](O)[C@@H](O)[C@@H]5O)nn4)cc13)-c1cc3c(c(=O)n1C2)COC(=O)[C@]3(O)CC [Compound 58]	3590
CCc1c2c(nc3ccc(OC(=O)OCCOCCOCCOCCOCc4cn(CCO[C@H]5O[C@@H](CO)[C@H](O)[C@@H](O)[C@@H]5O)nn4)cc13)-c1cc3c(c(=O)n1C2)COC(=O)[C@]3(O)CC [Compound 59]	854

###

Assay: Solubility test, equilibrium method, UV-visible spectrophotometry
Format: physicochemical
Conditions: aqueous with cosolvent or surfactant or cyclodextrin, thermodynamic from solid; 0.1% aqueous solution of Tween-80; read-out: Solubility in 0.1% Tween-80
Experimental: The solubility test is carried out by equilibrium method. […] An appropriate amount of the compound is weighed and dissolved in 1 mL of methanol solution to prepare a control solution with a certain concentration (C0). The concentration of test solution is calculated according to the following formula: Cx=(Ax/A0)C0, wherein Cx is concentration of test solution, Ax is absorbance of test solution, C0 is concentration of control solution, and A0 is absorbance of control solution.

Compound	solubility, µg/mL
CCc1c2c(nc3ccc(OC(=O)NCCOCc4cn(CCO[C@H]5O[C@@H](CO)[C@H](O)[C@@H](O)[C@@H]5O)nn4)cc13)-c1cc3c(c(=O)n1C2)COC(=O)[C@]3(O)CC	1480
CCc1c2c(nc3ccc(OC(=O)NCCCOCc4cn([C@H]5O[C@@H](CO)[C@H](O)[C@@H](O)[C@@H]5O)nn4)cc13)-c1cc3c(c(=O)n1C2)COC(=O)[C@]3(O)CC	961
CCc1c2c(nc3ccc(OC(=O)NCCOCc4cn([C@H]5O[C@@H](CO)[C@H](O)[C@@H](O)[C@@H]5O)nn4)cc13)-c1cc3c(c(=O)n1C2)COC(=O)[C@]3(O)CC	1140
CCc1c2c(nc3ccc(OC(=O)NCCCOCc4cn(CCO[C@H]5O[C@@H](CO)[C@H](O)[C@@H](O)[C@@H]5O)nn4)cc13)-c1cc3c(c(=O)n1C2)COC(=O)[C@]3(O)CC	1210
CCc1c2c(nc3ccc(OC(=O)NCCOCCOCc4cn(CCO[C@H]5O[C@@H](CO)[C@H](O)[C@@H](O)[C@@H]5O)nn4)cc13)-c1cc3c(c(=O)n1C2)COC(=O)C3(O)CC (some centres unmarked)	2750

###

pIC50 values for the compounds below.
Tested on: 143B
Assay: Cytotoxicity test (MTT, 72 h)
Conditions: Homo sapiens, read-out: 50% Inhibiting Concentration value (IC50)
pIC50: −log10 of the molar value. Counter-ions that a name gives are not always drawn.

Compound	Tested On	pIC50
CCc1c2c(nc3ccc(OC(=O)NCCCCCOCc4cn([C@H]5O[C@@H](CO)[C@H](O)[C@@H](O)[C@@H]5O)nn4)cc13)-c1cc3c(c(=O)n1C2)COC(=O)[C@]3(O)CC	143B	5.37
CCc1c2c(nc3ccc(OC(=O)OCCOCCOCc4cn([C@H]5O[C@@H](CO)[C@H](O)[C@@H](O)[C@@H]5O)nn4)cc13)-c1cc3c(c(=O)n1C2)COC(=O)[C@]3(O)CC	143B	5.05
CCc1c2c(nc3ccc(OC(=O)OCCOCc4cn(CCO[C@H]5O[C@@H](CO)[C@H](O)[C@@H](O)[C@@H]5O)nn4)cc13)-c1cc3c(c(=O)n1C2)COC(=O)[C@]3(O)CC	143B	5.16
CCc1c2c(nc3ccc(OC(=O)OCCOCCOCCOCCOCc4cn(CCO[C@H]5O[C@@H](CO)[C@H](O)[C@@H](O)[C@@H]5O)nn4)cc13)-c1cc3c(c(=O)n1C2)COC(=O)[C@]3(O)CC	143B	5.06
CCc1c2c(nc3ccc(OC(=O)NCCCOCc4cn([C@H]5O[C@@H](CO)[C@H](O)[C@@H](O)[C@@H]5O)nn4)cc13)-c1cc3c(c(=O)n1C2)COC(=O)[C@]3(O)CC	143B	5.05
CCc1c2c(nc3ccc(OC(=O)N4CCC(N5CCCCC5)CC4)cc13)-c1cc3c(c(=O)n1C2)COC(=O)[C@]3(O)CC [CPT-11, Irinotecan hydrochloride, reference compound]	143B	4.69
CCc1c2c(nc3ccc(OC(=O)NCCOCc4cn([C@H]5O[C@@H](CO)[C@H](O)[C@@H](O)[C@@H]5O)nn4)cc13)-c1cc3c(c(=O)n1C2)COC(=O)[C@]3(O)CC	143B	5.15

###

Tested on: A549
Assay: Cytotoxicity test (MTT, 72 h)
Settings: Homo sapiens, A549, 72 h, read-out: 50% Inhibiting Concentration value (IC50)
pIC50: −log10 of the molar value. Counter-ions that a name gives are not always drawn.
pIC50 values for the molecules below.

Molecule	pIC50
CCc1c2c(nc3ccc(OC(=O)NCCCOCc4cn(CCO[C@H]5O[C@@H](CO)[C@H](O)[C@@H](O)[C@@H]5O)nn4)cc13)-c1cc3c(c(=O)n1C2)COC(=O)[C@]3(O)CC	5.08
CCc1c2c(nc3ccc(OC(=O)OCCOCc4cn(CCO[C@H]5O[C@@H](CO)[C@H](O)[C@@H](O)[C@@H]5O)nn4)cc13)-c1cc3c(c(=O)n1C2)COC(=O)[C@]3(O)CC	5.33
CCc1c2c(nc3ccc(OC(=O)OCCOCCOCCOCc4cn([C@H]5O[C@@H](CO)[C@H](O)[C@@H](O)[C@@H]5O)nn4)cc13)-c1cc3c(c(=O)n1C2)COC(=O)[C@]3(O)CC	4.95
CCc1c2c(nc3ccc(OC(=O)OCCOCCOCCOCCOCc4cn([C@H]5O[C@@H](CO)[C@H](O)[C@@H](O)[C@@H]5O)nn4)cc13)-c1cc3c(c(=O)n1C2)COC(=O)[C@]3(O)CC	5.24
CCc1c2c(nc3ccc(OC(=O)NCCCCCOCc4cn(CCO[C@H]5O[C@@H](CO)[C@H](O)[C@@H](O)[C@@H]5O)nn4)cc13)-c1cc3c(c(=O)n1C2)COC(=O)[C@]3(O)CC	5.04
CCc1c2c(nc3ccc(OC(=O)NCCOCc4cn([C@H]5O[C@@H](CO)[C@H](O)[C@@H](O)[C@@H]5O)nn4)cc13)-c1cc3c(c(=O)n1C2)COC(=O)[C@]3(O)CC	5.25
CCc1c2c(nc3ccc(OC(=O)OCCOCCOCCOCCOCc4cn(CCO[C@H]5O[C@@H](CO)[C@H](O)[C@@H](O)[C@@H]5O)nn4)cc13)-c1cc3c(c(=O)n1C2)COC(=O)[C@]3(O)CC	5.10
CCc1c2c(nc3ccc(OC(=O)NCCOCCOCc4cn([C@H]5O[C@@H](CO)[C@H](O)[C@@H](O)[C@@H]5O)nn4)cc13)-c1cc3c(c(=O)n1C2)COC(=O)[C@]3(O)CC	5.23
CCc1c2c(nc3ccc(OC(=O)OCCOCCOCCOCc4cn(CCO[C@H]5O[C@@H](CO)[C@H](O)[C@@H](O)[C@@H]5O)nn4)cc13)-c1cc3c(c(=O)n1C2)COC(=O)[C@]3(O)CC	5.52
CCc1c2c(nc3ccc(OC(=O)NCCCOCc4cn([C@H]5O[C@@H](CO)[C@H](O)[C@@H](O)[C@@H]5O)nn4)cc13)-c1cc3c(c(=O)n1C2)COC(=O)[C@]3(O)CC	5.21
CCc1c2c(nc3ccc(OC(=O)OCCOCCOCc4cn([C@H]5O[C@@H](CO)[C@H](O)[C@@H](O)[C@@H]5O)nn4)cc13)-c1cc3c(c(=O)n1C2)COC(=O)[C@]3(O)CC	5.53
CCc1c2c(nc3ccc(OC(=O)N4CCC(N5CCCCC5)CC4)cc13)-c1cc3c(c(=O)n1C2)COC(=O)[C@]3(O)CC [CPT-11, Irinotecan hydrochloride, reference compound]	4.46
CCc1c2c(nc3ccc(OC(=O)NCCOCc4cn(CCO[C@H]5O[C@@H](CO)[C@H](O)[C@@H](O)[C@@H]5O)nn4)cc13)-c1cc3c(c(=O)n1C2)COC(=O)[C@]3(O)CC	5.62
CCc1c2c(nc3ccc(OC(=O)NCCOCCOCc4cn(CCO[C@H]5O[C@@H](CO)[C@H](O)[C@@H](O)[C@@H]5O)nn4)cc13)-c1cc3c(c(=O)n1C2)COC(=O)C3(O)CC (some centres unmarked)	5.03
CCc1c2c(nc3ccc(OC(=O)NCCCCCOCc4cn([C@H]5O[C@@H](CO)[C@H](O)[C@@H](O)[C@@H]5O)nn4)cc13)-c1cc3c(c(=O)n1C2)COC(=O)[C@]3(O)CC	5.20
CCc1c2c(nc3ccc(OC(=O)OCCOCc4cn([C@H]5O[C@@H](CO)[C@H](O)[C@@H](O)[C@@H]5O)nn4)cc13)-c1cc3c(c(=O)n1C2)COC(=O)[C@]3(O)CC	4.88
CCc1c2c(nc3ccc(OC(=O)OCCOCCOCc4cn(CCO[C@H]5O[C@@H](CO)[C@H](O)[C@@H](O)[C@@H]5O)nn4)cc13)-c1cc3c(c(=O)n1C2)COC(=O)[C@]3(O)CC	4.68
